Target: Cytoglobin (Cygb), wild type (Homo sapiens)
Sequence (Q8WWM9 whole entry): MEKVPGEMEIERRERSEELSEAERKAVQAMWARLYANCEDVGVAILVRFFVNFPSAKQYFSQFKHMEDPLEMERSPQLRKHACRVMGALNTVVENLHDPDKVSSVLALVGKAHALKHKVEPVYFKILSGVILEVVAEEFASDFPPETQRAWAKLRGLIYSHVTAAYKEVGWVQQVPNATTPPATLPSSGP
quantity-measured: Kd (µM)

[
  {
    "compound-string": "CCCCCCCC/C=C\\CCCCCCCC(=O)O",
    "measured-number": 2.3
  }
]
